system: KB; experiment: Cytotoxicity against human KB cells; type: functional; settings: read-out: ED50 (the source's name)
Measurement kind: EC50

Past entries and their recorded results:
c1cc2c(cc1[C@H]1OC[C@H]3[C@@H]1CO[C@@H]3c1ccc3c(c1)OCO3)OCO2; > 100 µg/mL
COc1ccc(-c2cc(=O)c3c(O)c(OC)c(OC)cc3o2)cc1O; > 50 µg/mL

With those in mind, consider the next compound.
Request: # lookup: KB EC50, key = "COc1ccc(-c2cc(=O)c3c(O)c(OC)c(OC)cc3o2)cc1OC"
Response: > 100 µg/mL
